Cited source: ChEMBL document CHEMBL1153045

- Test protocol: Oral bioavailability in rat at 2 mg/kg, po
- Format: ADME, organism-based
- Recorded conditions: in vivo
Reported metric: bioavailability (%)
Numbers only; they are read as %.

Exercise: Look at this compound and give its reported bioavailability. `N[C@H]1Cn2c(nc3ccc(F)cc32)C[C@@H]1c1cc(F)c(F)cc1F.O=C(O)C(F)(F)F`
Key: 37

Exercise: Also `N[C@H]1Cn2c(nc3cnc(F)cc32)C[C@@H]1c1cc(F)c(F)cc1F.O=C(O)C(F)(F)F.O=C(O)C(F)(F)F` , if possible.
Key: 87

Exercise: Note, next up: `CS(=O)(=O)c1ccc2c(c1)nc1n2C[C@H](N)[C@@H](c2cc(F)c(F)cc2F)C1.O=C(O)C(F)(F)F`
Key: 63

Exercise: How about `N[C@H]1Cn2c(nc3ncccc32)C[C@@H]1c1cc(F)c(F)cc1F.O=C(O)C(F)(F)F.O=C(O)C(F)(F)F` ?
Key: 96

* * *

- Test protocol: Metabolic stability in dog hepatocytes assessed as compound remaining after 60 mins
- Format: ADME, cell-based, Canis lupus familiaris, Hepatocyte
- Recorded conditions: read-out: Stability
Reported metric: remaining at 1 h (%)
Report as a plain number; the unit % is understood.

Exercise: Which remaining at 1 h value is on record for `N[C@H]1Cn2c(nc3cnccc32)C[C@@H]1c1cc(F)c(F)cc1F.O=C(O)C(F)(F)F.O=C(O)C(F)(F)F` ?
Key: 99

* * *

- Test protocol: Half life in mouse at 1 mg/kg, iv or 2 mg/kg, po
- Assay type: ADME, organism-based
- Recorded conditions: in vivo
Reported metric: half-life (h)
Answer with a number only, understood to be in h.

Exercise: Give the measured half-life of `Cl.N[C@H]1Cn2c(nc3cnccc32)C[C@@H]1c1cc(F)c(F)cc1F` .
Key: 1.9

* * *

- Test protocol: Plasma concentration in C57BL/6N lean mouse at 1 mg/kg, po administered as single dose 60 mins before dextrose challenge by oral glucose tolerance test
- Assay type: ADME, organism-based
- Design: dose 1 mg/kg, route oral
Reported metric: concentration at 1 h

Exercise: Can you look up the measured concentration at 1 h of `Cl.N[C@H]1Cn2c(nc3cnccc32)C[C@@H]1c1cc(F)c(F)cc1F` for me?
Key: 691 nM

* * *

- Test protocol: Metabolic stability in human liver microsomes assessed as compound remaining after 60 mins
- Format: ADME, Microsome
- Recorded conditions: read-out: Stability
Reported metric: remaining at 1 h
Entry format: amount then unit.

Exercise: Tell me the measured remaining at 1 h of `N[C@H]1Cn2c(nc3cnccc32)C[C@@H]1c1cc(F)c(F)cc1F.O=C(O)C(F)(F)F.O=C(O)C(F)(F)F` , please.
Key: 97%

* * *

- Test protocol: Metabolic stability in rat liver microsomes assessed as compound remaining after 60 mins
- Format: ADME, Microsome
- Recorded conditions: read-out: Stability
Reported metric: remaining at 1 h
Could you write the number and then its unit?

Exercise: I'd like to know its remaining at 1 h. The molecule in question is `N[C@H]1Cn2c(nc3cnccc32)C[C@@H]1c1cc(F)c(F)cc1F.O=C(O)C(F)(F)F.O=C(O)C(F)(F)F`
Key: 83%

* * *

- Tested target: UniProtKB P28843
- Sequence (P28843 whole entry): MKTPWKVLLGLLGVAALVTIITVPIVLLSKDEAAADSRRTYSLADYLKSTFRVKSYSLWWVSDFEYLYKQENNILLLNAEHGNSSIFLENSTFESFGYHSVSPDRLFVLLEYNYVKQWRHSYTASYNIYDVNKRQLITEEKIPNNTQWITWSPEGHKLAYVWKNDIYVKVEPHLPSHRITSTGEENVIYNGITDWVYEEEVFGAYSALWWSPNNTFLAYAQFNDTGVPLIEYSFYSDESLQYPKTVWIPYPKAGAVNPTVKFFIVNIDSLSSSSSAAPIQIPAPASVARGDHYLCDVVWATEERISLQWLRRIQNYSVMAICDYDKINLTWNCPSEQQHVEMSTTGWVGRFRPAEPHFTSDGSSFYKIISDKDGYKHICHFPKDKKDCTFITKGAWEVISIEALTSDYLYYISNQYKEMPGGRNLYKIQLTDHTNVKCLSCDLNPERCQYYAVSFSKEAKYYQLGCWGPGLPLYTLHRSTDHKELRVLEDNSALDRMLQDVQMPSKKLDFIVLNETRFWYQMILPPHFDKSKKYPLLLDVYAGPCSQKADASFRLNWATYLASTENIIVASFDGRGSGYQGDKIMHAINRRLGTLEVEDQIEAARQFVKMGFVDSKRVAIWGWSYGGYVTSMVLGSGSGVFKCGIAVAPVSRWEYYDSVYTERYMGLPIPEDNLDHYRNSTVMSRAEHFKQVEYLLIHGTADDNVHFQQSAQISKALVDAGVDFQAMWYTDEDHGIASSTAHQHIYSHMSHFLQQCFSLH
Reported metric: IC50
Give me the value, and tack the unit on after it.

Exercise: What value of IC50 has been recorded for this entry: `Cl.N[C@H]1Cn2c(nc3cnccc32)C[C@@H]1c1cc(F)c(F)cc1F`
Key: 45 nM
